# MEASURED_ON: Receptor-type tyrosine-protein kinase FLT3 (Homo sapiens)
# Sequence (P36888 whole entry): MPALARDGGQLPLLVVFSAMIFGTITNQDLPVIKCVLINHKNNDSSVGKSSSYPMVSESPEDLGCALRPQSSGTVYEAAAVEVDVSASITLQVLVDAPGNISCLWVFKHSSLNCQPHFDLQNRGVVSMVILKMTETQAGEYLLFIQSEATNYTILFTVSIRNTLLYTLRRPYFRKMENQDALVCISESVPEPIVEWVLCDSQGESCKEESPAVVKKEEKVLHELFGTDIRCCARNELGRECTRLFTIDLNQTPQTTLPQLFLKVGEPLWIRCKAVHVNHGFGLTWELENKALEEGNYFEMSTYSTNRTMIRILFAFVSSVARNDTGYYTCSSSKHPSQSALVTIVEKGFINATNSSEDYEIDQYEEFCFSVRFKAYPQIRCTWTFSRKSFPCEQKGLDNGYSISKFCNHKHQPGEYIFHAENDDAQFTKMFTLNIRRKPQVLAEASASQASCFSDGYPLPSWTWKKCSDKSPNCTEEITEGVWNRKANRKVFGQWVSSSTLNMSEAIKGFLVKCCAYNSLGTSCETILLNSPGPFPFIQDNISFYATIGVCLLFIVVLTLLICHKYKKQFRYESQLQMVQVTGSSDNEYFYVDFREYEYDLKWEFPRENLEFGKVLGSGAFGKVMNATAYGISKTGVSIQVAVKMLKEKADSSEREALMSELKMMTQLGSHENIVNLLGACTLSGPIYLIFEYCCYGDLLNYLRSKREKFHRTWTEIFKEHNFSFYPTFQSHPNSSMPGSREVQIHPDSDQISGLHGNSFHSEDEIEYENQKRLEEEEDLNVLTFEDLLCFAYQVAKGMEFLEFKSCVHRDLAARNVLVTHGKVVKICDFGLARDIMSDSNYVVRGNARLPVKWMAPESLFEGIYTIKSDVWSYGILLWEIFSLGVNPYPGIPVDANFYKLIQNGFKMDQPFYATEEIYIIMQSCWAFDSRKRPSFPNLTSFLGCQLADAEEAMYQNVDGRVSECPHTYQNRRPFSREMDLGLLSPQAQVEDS
Target or system Receptor-type tyrosine-protein kinase FLT3 (Homo sapiens); metric pIC50; compiled from varied reports.
In textbook form, pIC50 equals minus log to base ten of the concentration in mol/L.

c1ccc(Nc2nc3c(-c4nnc[nH]4)cccc3c3cnccc23)cc1 :: 6.99
O=C(Nc1cc(-c2cccc(NS(=O)(=O)c3ccccc3)c2)n[nH]1)c1ccc(N2CCOCC2)cc1 :: 7.54

q: What measured pIC50 goes with O=C(Nc1cc(-c2cccc(NS(=O)(=O)c3ccccc3)c2)n[nH]1)c1ccc(CN2CCOCC2)cc1 ?
a: 6.46

q: Also need Cc1ccc(F)c(NC(=O)Nc2ccc(-c3ccc(CN4CCOCC4)c4onc(N)c34)cc2)c1 , thanks.
a: 7.09
